target: Taq polymerase (Thermus aquaticus, UniProt P19821); construct: purchased New England Biolabs (Ipswich, Mass.); assay: PCR-based screen and amplification of DNA containing unnatural base pairs, Taq (Example 1); format: biochemical; conditions: Taq, 10 s Extension, 52 cycles, D6 template
Sequence (P19821 whole entry): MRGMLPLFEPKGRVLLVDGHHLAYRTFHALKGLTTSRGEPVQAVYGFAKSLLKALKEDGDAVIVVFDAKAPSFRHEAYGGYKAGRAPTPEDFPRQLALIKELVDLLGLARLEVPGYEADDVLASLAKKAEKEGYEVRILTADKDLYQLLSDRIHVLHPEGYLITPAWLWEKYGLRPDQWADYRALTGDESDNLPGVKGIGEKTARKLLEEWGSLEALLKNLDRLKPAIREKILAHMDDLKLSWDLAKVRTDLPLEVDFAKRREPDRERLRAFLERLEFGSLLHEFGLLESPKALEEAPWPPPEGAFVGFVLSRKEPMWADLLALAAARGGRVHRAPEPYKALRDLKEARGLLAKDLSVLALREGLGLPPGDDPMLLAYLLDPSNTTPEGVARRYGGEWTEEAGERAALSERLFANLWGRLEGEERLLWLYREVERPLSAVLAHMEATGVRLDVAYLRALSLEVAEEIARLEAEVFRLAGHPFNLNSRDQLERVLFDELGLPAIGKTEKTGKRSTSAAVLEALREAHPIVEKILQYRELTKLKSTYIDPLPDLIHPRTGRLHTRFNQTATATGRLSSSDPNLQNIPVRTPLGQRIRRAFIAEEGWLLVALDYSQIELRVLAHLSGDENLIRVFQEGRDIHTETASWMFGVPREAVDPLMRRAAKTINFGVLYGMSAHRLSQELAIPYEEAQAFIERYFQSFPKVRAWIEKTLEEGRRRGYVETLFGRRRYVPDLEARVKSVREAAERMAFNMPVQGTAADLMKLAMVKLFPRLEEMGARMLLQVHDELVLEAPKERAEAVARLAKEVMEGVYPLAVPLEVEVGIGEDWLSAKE
QUANTITY_NAME: Retention, % (%)
Expressed in %, but write only the number.

Illustrative cases are given below, each with its answer.
{"SMILES_NOTATION": "COc1cc2ccccc2cc1[C@H]1C[C@H](O)[C@@H](COP(=O)(O)OP(=O)(O)OP(=O)(O)O)O1.O=P(O)(O)OP(=O)(O)OP(=O)(O)OC[C@H]1O[C@@H](n2ccc3ccsc3c2=S)C[C@@H]1O", "QUANTITY_NAME": "Retention, %", "EXPERIMENTAL_RESULT": 86.5}
{"SMILES_NOTATION": "C#Cc1cc(OC)c([C@H]2C[C@H](O)[C@@H](COP(=O)(O)OP(=O)(O)OP(=O)(O)O)O2)cc1F.O=P(O)(O)OP(=O)(O)OP(=O)(O)OC[C@H]1O[C@@H](n2ccc3ccsc3c2=S)C[C@@H]1O", "QUANTITY_NAME": "Retention, %", "EXPERIMENTAL_RESULT": 79}
{"SMILES_NOTATION": "COc1cc(I)c(F)cc1[C@H]1C[C@H](O)[C@@H](COP(=O)(O)OP(=O)(O)OP(=O)(O)O)O1.O=P(O)(O)OP(=O)(O)OP(=O)(O)OC[C@H]1O[C@@H](n2cc(F)c3ccsc3c2=S)C[C@@H]1O", "QUANTITY_NAME": "Retention, %", "EXPERIMENTAL_RESULT": 84}

Let us move to another entry and its Retention, %.
Observed Retention, % on Taq polymerase (Thermus aquaticus, UniProt P19821), entry COc1cc(I)ccc1[C@H]1C[C@H](O)[C@@H](COP(=O)(O)OP(=O)(O)OP(=O)(O)O)O1.O=P(O)(O)OP(=O)(O)OP(=O)(O)OC[C@H]1O[C@@H](n2cc(F)c3ccsc3c2=S)C[C@@H]1O , equals 82

###

This section presents compounds with their documented Retention, % values.
test system: OneTaq polymerase; experiment: PCR-based screen and amplification of DNA containing unnatural base pairs, OneTaq (Example 1); type: biochemical; details: OneTaq, 16 cycles, 1 min extension
Expressed in %, but write only the number.

{"COMPOUND": "CSc1ccc(C2CC(O)C(CO)O2)c(SC)n1.OCC1OC(n2ccc3ccsc3c2=S)CC1O (stereo not drawn)", "Retention, % [%]": 85.20}

Lookup result for CSc1nc(C)ccc1[C@H]1C[C@H](O)[C@@H](COP(=O)(O)OP(=O)(O)OP(=O)(O)O)O1.O=P(O)(O)OP(=O)(O)OP(=O)(O)OC[C@H]1O[C@@H](n2ccc3ccsc3c2=S)C[C@@H]1O ; measured Retention, %: 61.98

###

target: Klenow fragment of E. coli DNA polymerase I (Escherichia coli, UniProt P00582); construct: the Klenow fragment of E. coli DNA polymerase I; assay: Presteady-state kinetics: incorporation of unnatural triphosphate opposite dNaM and extension; type: biochemical; conditions: 40 nM unnatural triphosphate, 2 μM dCTP, 10 s; dXTPs paired with dNaM
Sequence (P00582 324-928): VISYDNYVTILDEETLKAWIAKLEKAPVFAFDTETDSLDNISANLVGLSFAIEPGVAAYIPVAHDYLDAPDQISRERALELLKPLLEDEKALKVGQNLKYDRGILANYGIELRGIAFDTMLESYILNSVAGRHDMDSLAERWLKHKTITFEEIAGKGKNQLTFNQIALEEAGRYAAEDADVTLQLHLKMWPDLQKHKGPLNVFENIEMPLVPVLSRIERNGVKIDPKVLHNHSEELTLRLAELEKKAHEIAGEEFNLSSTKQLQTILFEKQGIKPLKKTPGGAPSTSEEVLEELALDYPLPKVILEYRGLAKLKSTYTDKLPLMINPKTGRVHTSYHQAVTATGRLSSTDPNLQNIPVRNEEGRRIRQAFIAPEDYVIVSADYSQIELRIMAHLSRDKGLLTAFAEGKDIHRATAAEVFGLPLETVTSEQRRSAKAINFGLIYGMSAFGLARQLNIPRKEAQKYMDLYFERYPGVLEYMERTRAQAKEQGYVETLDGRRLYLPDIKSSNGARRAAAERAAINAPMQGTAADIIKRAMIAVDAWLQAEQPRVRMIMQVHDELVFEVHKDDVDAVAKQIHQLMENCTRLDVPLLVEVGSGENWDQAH
QUANTITY_NAME: % Incorporation
Note: a bare number is incomplete; add the unit.

Illustrative cases are given below, each with its answer.
{"COMPOUND": "Cc1cc2c(=S)n([C@H]3C[C@H](O)[C@@H](COP(=O)(O)OP(=O)(O)OP(=O)(O)O)O3)ccc2o1 [FPT1]", "TESTED_SYSTEM": "Klenow fragment of E. coli DNA polymerase I (Escherichia coli, UniProt P00582)", "% Incorporation": "7.2 ± 0.2%"}
{"COMPOUND": "Cc1cc2c(=S)n([C@H]3C[C@H](O)[C@@H](COP(=O)(O)OP(=O)(O)OP(=O)(O)O)O3)ccc2s1 [TPT1]", "TESTED_SYSTEM": "Klenow fragment of E. coli DNA polymerase I (Escherichia coli, UniProt P00582)", "% Incorporation": "28.7 ± 0.5%"}
{"COMPOUND": "Cc1cc2ccn([C@H]3C[C@H](O)[C@@H](COP(=O)(O)OP(=O)(O)OP(=O)(O)O)O3)c(=S)c2s1 [TPT2]", "TESTED_SYSTEM": "Klenow fragment of E. coli DNA polymerase I (Escherichia coli, UniProt P00582)", "% Incorporation": "65.7 ± 0.5%"}

Lookup result for O=P(O)(O)OP(=O)(O)OP(=O)(O)OC[C@H]1O[C@@H](n2cc(F)c3ccsc3c2=S)C[C@@H]1O [FTPT3] ; measured % Incorporation: 66.3 ± 0.5%
